Provide the reported self-cleavage of each item.
B1: LINE1-full (parent)
chain: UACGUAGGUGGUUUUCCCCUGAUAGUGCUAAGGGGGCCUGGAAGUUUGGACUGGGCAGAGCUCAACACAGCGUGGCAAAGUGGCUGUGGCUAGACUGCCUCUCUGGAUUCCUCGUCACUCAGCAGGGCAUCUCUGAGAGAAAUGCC

- Variants of: B1
- assay-name: self-cleavage, relative activity (ratio to wild type); higher = more cleavage; in vitro, sequencing; the parent is a self-cleaving ribozyme
Keep the answer to the number alone.

Entry U73G A107U : reported self-cleavage = ?
1.59

Entry U108C A121U : reported self-cleavage = ?
2.15

Entry C18U A24G : reported self-cleavage = ?
1.01

Entry G34C C37U : reported self-cleavage = ?
0.84

Entry A94C A124U : reported self-cleavage = ?
0

Entry A94C U134C : reported self-cleavage = ?
0.09

Entry U9C A77G : reported self-cleavage = ?
1.92

Entry G86A A136G : reported self-cleavage = ?
0.09

Entry U81C C133A : reported self-cleavage = ?
0.9

Entry A64G U108A : reported self-cleavage = ?
0.12

Entry C61U A77G : reported self-cleavage = ?
0.06

Entry A31G G125U : reported self-cleavage = ?
0.96

Entry U12C G58A : reported self-cleavage = ?
0.09

Entry A22G G126A : reported self-cleavage = ?
1.74

Entry G53A U81C : reported self-cleavage = ?
0.67

Entry `G35U` : reported self-cleavage = ?
1.22

Entry `A64U` : reported self-cleavage = ?
0.41

Entry U108C G127A : reported self-cleavage = ?
1.64

Entry U62A A77U : reported self-cleavage = ?
0.01

All values here come from the RNAGym collection of RNA variant scans (doi:10.7554/elife.90254).
